The reported measurements were obtained from patent US20240317847A1.

Biological target: T1, human IL2Ra (human, UniProt P01589 22-240, limits assumed)
T1 construct: bought protein, coated on the plate; also called hIL2RA; IL-2 receptor alpha
T1 sequence (looked up): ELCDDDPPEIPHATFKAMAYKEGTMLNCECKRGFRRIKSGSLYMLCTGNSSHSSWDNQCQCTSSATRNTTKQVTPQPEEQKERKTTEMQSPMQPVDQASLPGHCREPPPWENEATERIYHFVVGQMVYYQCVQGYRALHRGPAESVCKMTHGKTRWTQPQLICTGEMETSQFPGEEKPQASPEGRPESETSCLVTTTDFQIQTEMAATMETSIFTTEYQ
Experiment: IL2Ra direct binding ELISA, signal ratio to isotype control
Can you tell me hIL2RA ELISA Binding: Ratio to Isotpye for the items I'm about to list?
One number for each entry, in ratio.

>  <BINDER>
TPP-26314 (antibody, V domains shown) VH: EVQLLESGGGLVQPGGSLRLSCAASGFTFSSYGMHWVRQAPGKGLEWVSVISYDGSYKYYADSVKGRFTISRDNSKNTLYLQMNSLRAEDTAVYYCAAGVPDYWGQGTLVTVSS VL: QSVLTQPPSASGTPGQRVTISCTGSSSNIGAGYDVHWYQQLPGTAPKLLIYSNNERPSGVPDRFSGSKSGTSASLAISGLRSEDEADYYCAAWDWSLNGPVFGGGTKLTVL

>  <ASSAY_VALUE>
455

$$$$
>  <BINDER>
TPP-26326 (antibody, V domains shown) VH: EVQLLESGGGLVQPGGSLRLSCAASGFTFSYYGMHWVRQAPGKGLEWVSVISYDGSYKYYADSVKGRFTISRDNSKNTLYLQMNSLRAEDTAVYYCAAGVPDYWGQGTLVTVSS VL: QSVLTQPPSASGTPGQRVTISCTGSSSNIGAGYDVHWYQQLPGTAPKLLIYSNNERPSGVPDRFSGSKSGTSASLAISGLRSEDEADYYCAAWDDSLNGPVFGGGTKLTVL

>  <ASSAY_VALUE>
516

$$$$

Turning now to a further record.
Find the recorded hIL2RA ELISA Binding: Ratio to Isotpye belonging to TPP-26331 (antibody, V domains shown) VH: EVQLLESGGGLVQPGGSLRLSCAASGFTFSSYGGHWVRQAPGKGLEWVSVISYDGSYKYYADSVKGRFTISRDNSKNTLYLQMNSLRAEDTAVYYCAAGVPDYWGQGTLVTVSS VL: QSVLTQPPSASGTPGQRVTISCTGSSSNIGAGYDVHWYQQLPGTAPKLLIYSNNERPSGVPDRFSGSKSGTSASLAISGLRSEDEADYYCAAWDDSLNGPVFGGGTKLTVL and report it.
107
